system-under-test: HLA-B*5401 (human)
assay-remarks: competition with 125I-labeled standard peptide for purified HLA, gel filtration
measurement-name: binding affinity ratio (IC50 of standard peptide / IC50 of test peptide)

>>> print(df.to_string())
                                     binder  readout_value
0  DPQERPRKL (modifications not checked) [HPV16 E6 11 …]         0.0002
1     WPYLHNRLV (modifications not checked)           0.18
2  EPPKLRSTAA (modifications not checked) [HPV16 E1 308 …]           0.02
3    WPYLHNRLVV (modifications not checked)          0.076
